biological target: Sphingosine kinase 1 (Mus musculus, UniProt Q8CI15); assay: Inhibition of recombinant mouse SphK1 transfected in HEK293T cells using D-erythro-sphingosine measured after 20 mins in presence of gamma-[p32]-ATP by autoradiography and liquid scintillation counting method
Sequence (Q8CI15 whole entry): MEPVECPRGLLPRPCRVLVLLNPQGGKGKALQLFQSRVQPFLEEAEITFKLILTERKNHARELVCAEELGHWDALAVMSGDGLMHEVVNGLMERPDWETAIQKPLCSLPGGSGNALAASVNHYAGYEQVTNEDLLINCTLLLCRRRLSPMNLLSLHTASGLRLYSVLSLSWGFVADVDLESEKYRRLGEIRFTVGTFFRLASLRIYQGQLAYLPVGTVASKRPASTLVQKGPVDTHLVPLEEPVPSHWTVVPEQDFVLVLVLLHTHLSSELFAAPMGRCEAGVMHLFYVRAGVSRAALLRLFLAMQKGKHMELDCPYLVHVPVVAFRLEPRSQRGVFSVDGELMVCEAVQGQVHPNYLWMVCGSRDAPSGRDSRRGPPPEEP
pIC50: −log10 of the molar value.
REPORTED_METRIC: pIC50

Ask: Which pIC50 is listed for CCCCCCCCCCc1ccc(-c2noc(CCCN)n2)cc1.Cl ?
Result: ≤ 4.52

###

target: Sphingosine-1-phosphate transporter SPNS2 (Mus musculus) (UniProt Q91VM4); assay: Inhibition of mouse Spns2 transfected in human HeLa cells by measuring S1P release at 2 uM by LC/MS analysis relative to control; format: cell-based
Sequence (Q91VM4 whole entry): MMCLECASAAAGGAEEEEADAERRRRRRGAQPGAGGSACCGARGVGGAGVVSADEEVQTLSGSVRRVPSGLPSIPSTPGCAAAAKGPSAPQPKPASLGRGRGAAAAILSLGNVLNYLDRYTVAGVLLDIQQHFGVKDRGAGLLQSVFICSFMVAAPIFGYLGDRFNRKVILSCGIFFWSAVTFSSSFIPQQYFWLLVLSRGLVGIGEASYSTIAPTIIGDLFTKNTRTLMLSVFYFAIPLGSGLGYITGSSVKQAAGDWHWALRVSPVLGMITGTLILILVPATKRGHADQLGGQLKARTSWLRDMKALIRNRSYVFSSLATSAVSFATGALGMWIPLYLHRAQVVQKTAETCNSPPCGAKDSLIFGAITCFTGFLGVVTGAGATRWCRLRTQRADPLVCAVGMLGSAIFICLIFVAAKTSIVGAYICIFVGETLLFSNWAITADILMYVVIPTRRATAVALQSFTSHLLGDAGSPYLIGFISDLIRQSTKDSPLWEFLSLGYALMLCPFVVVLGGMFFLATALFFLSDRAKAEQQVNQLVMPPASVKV
This section presents compounds with their documented inhibition values.
State just the number; it will be interpreted in %.

Answered cases to consult:
CCCCCCCCCCc1ccc(-c2noc(CN)n2)cc1: 62
CCCCCCCCCCc1ccc(-c2noc(CCCN(C)C)n2)cc1: 8
CCCCCCCCCCc1ccc(-c2noc(CCCN3CCCCC3)n2)cc1: 0
CCCCCCCCCCc1ccc(-c2noc(CCCN)n2)cc1.Cl: 67
CCCCCCCCCCc1ccc(-c2noc([C@@H]3CCCN3)n2)cc1: 21

Ask: Test system Sphingosine-1-phosphate transporter SPNS2 (Mus musculus) (UniProt Q91VM4); read-out inhibition; what value for CCCCCCCOc1ccc2cc(-c3noc(CCCN)n3)ccc2c1 ?
Result: 8

Ask: What do you have for CCCCCCc1ccc(-c2noc(CCCN)n2)cc1 ?
Result: 55

Ask: What do you have for CCCCCCCCCCc1ccc(-c2noc(CC(O)CN3CCCC3)n2)cc1 (stereo not given) ?
Result: 21

Ask: What do you have for CCCCCCCCCCc1ccc(-c2noc(CCCNC)n2)cc1 ?
Result: 45

Ask: What do you have for CCCCCCCCCCc1ccc(-c2csc(CCCN)n2)cc1 ?
Result: 45

Ask: What do you have for CCCCCCCCCCc1ccc(-c2noc(C3CCNCC3)n2)cc1 ?
Result: 66

Ask: What do you have for CCCCCCCCC(=O)Nc1ccc(-c2noc(CCCN)n2)cc1 ?
Result: 35

Ask: What do you have for CCCCCCCCCc1ccc(Cc2noc(CCCN)n2)cc1 ?
Result: 34

Ask: What do you have for CCCCCCCCCOc1ccc(-c2noc(CCCN)n2)cc1 ?
Result: 49

Ask: What do you have for CCCCCCCCCCc1ccc(-c2noc([C@@H]3CCC[C@@H](N)C3)n2)cc1 ?
Result: 13

Ask: What do you have for CCCCCCCCCCc1ccc(-c2noc([C@H]3CCNC3)n2)cc1 ?
Result: 26

Ask: What do you have for CCCCCCCCCCc1ccc(-c2noc(CC(O)CN3CCOCC3)n2)cc1 (stereo not given) ?
Result: 0

Ask: What do you have for CCCCCCCCCCCc1ccc(-c2noc(CCCN)n2)cc1 ?
Result: 49

Ask: What do you have for CCCCCCCCCCc1ccc(-c2ccnn2CCCN)cc1 ?
Result: 45

Ask: What do you have for CCCCCCCCCCc1ccc(-c2noc(CCCCN)n2)cc1 ?
Result: 55

These entries and their values trace back to ChEMBL document CHEMBL5154924.
